pIC50: −log10 of the molar value.
The next entries give measured pIC50 for UniProt P42227.
Sequence (P42227 whole entry): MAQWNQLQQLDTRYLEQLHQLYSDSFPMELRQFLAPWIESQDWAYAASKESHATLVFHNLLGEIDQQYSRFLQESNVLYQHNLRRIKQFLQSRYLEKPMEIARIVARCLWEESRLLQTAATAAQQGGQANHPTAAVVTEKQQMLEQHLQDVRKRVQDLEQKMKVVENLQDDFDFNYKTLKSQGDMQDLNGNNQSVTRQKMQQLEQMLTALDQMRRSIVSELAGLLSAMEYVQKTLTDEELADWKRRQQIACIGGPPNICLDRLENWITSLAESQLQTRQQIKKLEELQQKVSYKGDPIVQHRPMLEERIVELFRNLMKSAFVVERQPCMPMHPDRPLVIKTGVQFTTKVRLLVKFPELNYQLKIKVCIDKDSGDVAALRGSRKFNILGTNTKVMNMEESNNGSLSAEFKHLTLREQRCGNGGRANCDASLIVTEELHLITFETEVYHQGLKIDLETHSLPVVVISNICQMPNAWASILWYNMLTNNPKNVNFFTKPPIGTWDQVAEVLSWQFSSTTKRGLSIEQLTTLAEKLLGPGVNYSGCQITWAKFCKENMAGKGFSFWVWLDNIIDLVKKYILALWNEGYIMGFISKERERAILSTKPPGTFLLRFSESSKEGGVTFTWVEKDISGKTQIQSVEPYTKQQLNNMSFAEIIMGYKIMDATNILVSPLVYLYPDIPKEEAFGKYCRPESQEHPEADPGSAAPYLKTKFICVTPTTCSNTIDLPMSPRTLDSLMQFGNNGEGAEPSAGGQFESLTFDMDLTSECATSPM

// below: answered molecules
[[record]]
smi = "CN(CC(=O)N(Cc1ccc(C2CCCCC2)cc1)c1ccc(C(=O)O)c(O)c1)S(=O)(=O)c1cc(F)ccc1F"
tgt = "UniProt P42227"
test_value = "< 4.59"

[[record]]
smi = "CN(CC(=O)N(Cc1ccc(C2CCCCC2)cc1)c1ccc(C(=O)O)c(O)c1)S(=O)(=O)c1cccnc1"
tgt = "UniProt P42227"
test_value = "< 4.59"


## Input Enter pIC50 (test system UniProt P42227) for CN(CC(=O)N(Cc1ccc(C2CCCCC2)cc1)c1ccc(C(=O)O)c(O)c1)S(=O)(=O)c1cc(F)cc(F)c1
## Output < 4.59

## Input Enter pIC50 (test system UniProt P42227) for CN(CC(=O)N(Cc1ccc(C2CCCCC2)cc1)c1ccc(C(=O)O)cc1Cl)S(=O)(=O)c1c(F)c(F)c(F)c(F)c1F
## Output 4.84 to 5.07

## Input Enter pIC50 (test system UniProt P42227) for CN(CC(=O)N(Cc1ccc(C2CCCCC2)cc1)c1ccc(C(=O)O)c(O)c1)S(=O)(=O)c1cc(C(F)(F)F)cc(C(F)(F)F)c1
## Output < 4.59
